Field: TGI. Provide a value for each of the compounds that follow.
- Tested on: DMS 114 small cell lung
- Protocol summary: NCI tumour cell line growth inhibition, 48 h

Which TGI value is on record for CN1C(c2ccccc2)CC(=NO)CC1c1ccccc1 (centres undefined) ?
> 100 µM

Okay, and O=C([O-])c1ccccc1Nc1ccccc1C(=O)[O-].[OH3+].[Zn+2] ?
37.4 µM

Okay, and CC1=NC(C)=C(/C(C)=N/NC(=O)c2ccccc2O)C(C)/C1=C(/C)NNC(=O)c1ccccc1O (centres undefined) ?
44.1 µM

Okay, and CCOC(=O)NC(=O)c1cn(CCN(CCO)C(=O)NCCCCCCNC(=O)N(CCO)CCn2cc(C(=O)NC(=O)OCC)c(=O)[nH]c2=O)c(=O)[nH]c1=O ?
> 100 µM

Okay, and NC1=C(O)/C(=N/NS(=O)(=O)c2ccccc2)C(c2ccc3c(c2)OCO3)O1 (centres undefined) ?
> 100 µM

Okay, and CC1CCCc2c1n[nH]c2CC1CC(=O)NC(=O)C1 (centres undefined) ?
> 100 µM

Okay, and N=C1c2ccccc2C(=O)c2c(NCCNCCO)ccc(O)c21 ?
15.1 µM

Okay, and COC1CC(O[C@H]2CC[C@@]3(C)C(=CCC4(O)C3CCC35C(=O)OC6(C)O[C@@]43CCC65)C2)OC(C)C1O (some centres undefined) ?
> 100 µM

Okay, and Cn1cnc(SC2=CC(=O)C=C3S[C@H]4C[C@@]23c2c(c(O)c3c5c2=NCCC=5C=N3)N4)c1CC(N)C(=O)O (some centres undefined) ?
4.31 µM

* * *

Field: TGI. Provide a value for each of the molecules that follow.
- System: MDA-MB-231 breast
- Protocol summary: NCI tumour cell line growth inhibition, 48 h

Which TGI value is on record for Nc1ccc2nc3n(c2c1)C(c1c(F)cccc1F)SC3 (stereo not drawn) ?
> 100 µM

Okay, and COC(Cc1cc(C(O)(c2ccc(C(C)(C)C)cc2)c2cc(CC(OC)(c3cc(C(OC)(c4ccc(C(C)(C)C)cc4)c4ccc(C(C)(C)C)cc4)c(C)cc3C)c3cc(C(OC)(c4ccc(C(C)(C)C)cc4)c4ccc(C(C)(C)C)cc4)c(C)cc3C)c(C)cc2C)c(C)cc1C)(c1cc(C(OC)(c2ccc(C(C)(C)C)cc2)c2ccc(C(C)(C)C)cc2)c(C)cc1C)c1cc(C(OC)(c2ccc(C(C)(C)C)cc2)c2ccc(C(C)(C)C)cc2)c(C)cc1C ?
> 75 µM

Okay, and Nc1nncc2n[nH]nc12 ?
> 100 µM

Okay, and COc1cc(/C=C2\N=C(c3ccccc3)N(c3nc4ccccc4s3)C2=O)cc(OC)c1OC ?
> 100 µM

Okay, and C/C1=C\[C@@H](C)C[C@@H](C)OC(=O)[C@@H](C)NC(=O)[C@H](Cc2ccc(O)c(Br)c2)N(C)C(=O)CNC(=O)[C@H](C)C1 ?
5.34 µM

Okay, and CCc1cc2c(cc1C(=O)CCC(=O)O)CC1(C2)Cc2cc(CC)c(C(=O)CCC(=O)O)cc2C1 ?
> 100 µM

Okay, and COc1cc(/C=C2\C(=O)Nc3ccc(Cl)cc32)cc(OC)c1OC ?
37.3 µM

Okay, and O=C1NN(C(=O)c2ccccc2)C(c2ccc(Cl)c(Cl)c2)=C/C1=C\c1ccccc1[N+](=O)[O-] ?
> 6.75 µM

* * *

- Tested on: SNB-19 CNS
- Protocol summary: NCI tumour cell line growth inhibition, 48 h
Endpoint label: TGI

Which TGI value is on record for CC1=C(C(=O)O)N2C(=O)[C@@H](NC(=O)C(c3ccccc3)N3CSC(=S)N(C(C)C)C3)C2SC1 (stereo partly specified) ?
> 100 µM

Okay, and CCCCN(C)CC(C(C)=O)C(c1ccccc1)c1c(O)c2ccccc2oc1=O (stereo unspecified) ?
> 100 µM

Okay, and COC(=O)CC(C(C(=O)OCc1ccccc1)C(C)O)N1C(=O)OCC1c1ccccc1 (stereo unspecified) ?
> 100 µM

Okay, and CC(=O)OC1CC2C(C)(C)C(=O)C=C[C@]2(C)C2CCC3(C)C(c4ccoc4)C(=O)C4OC43[C@]12C (stereo partly specified) ?
80.7 µM

Okay, and Cc1ccc(S(=O)(=O)NC(Cc2ccccc2)C(=O)CCl)cc1 (stereo unspecified) ?
32.1 µM

Okay, and C=CCN=C1NC(=O)C(CC(=O)Nc2cccc(Cl)c2)S1 (stereo unspecified) ?
> 100 µM

Okay, and C/C(COc1ccc2oc(-c3ccccc3)cc(=O)c2c1)=N\O ?
> 100 µM

Okay, and O=C(CSc1nc2ccc(I)cc2c(=O)n1Cc1ccccc1)NNC(=S)Nc1ccccc1 ?
> 100 µM

Okay, and COc1ccc(CC2Cc3ccccc3CC(=O)N2)cc1OC (stereo unspecified) ?
> 100 µM

Okay, and Cc1ccc(F)c2[nH]c(-c3ccccc3)cc(=O)c12 ?
> 100 µM

Okay, and NC(=O)c1ccc(I)c([N+](=O)[O-])c1 ?
> 100 µM

Okay, and CC(=O)OCCCCn1nncc1Cn1ccc(=O)n(Cc2cnnn2CCCCOC(C)=O)c1=O ?
> 100 µM

Okay, and COP(=O)(/C=C/C(NC(=O)C(Cl)(Cl)Cl)c1ccccc1)OC (stereo unspecified) ?
> 100 µM

Okay, and NC(CCl)=NCC12CC3CC(CC(C3)C1)C2 ?
23 µM

Okay, and C[n+]1c2ccccc2n2c3ccccc3c(NCc3ccco3)c(C#N)c21 ?
26.6 µM

Okay, and Cc1nc(-c2cccnc2)sc1C(=O)CC(=O)C(=O)Nc1cccc(NC(=O)C(=O)CC(=O)c2sc(-c3cccnc3)nc2C)n1 ?
> 100 µM

* * *

- Tested on: A549 NSCLC
- Protocol summary: NCI tumour cell line growth inhibition, 48 h
Endpoint label: TGI (µM)
// units = µM; emit number, no label

Which TGI value is on record for CCCCCCCC(=O)Nc1nc2[nH]c(CN3CCN(Cc4cccc(I)c4)CC3)c(CN3CCN(Cc4cccc(I)c4)CC3)c2c(=O)[nH]1 ?
1.91

Okay, and COc1ccc(NC(=O)c2ccc(C(F)(F)F)nc2Nc2ccc(Cl)cc2C)cc1Cl ?
20.6

Okay, and COc1ccc2c(c1)c1ccc3c(c1n2C)C(=O)C=CC3=O ?
68.7

Okay, and C#Cc1cccc(Nc2nc(C)nc3cc(NC(=O)CCl)ccc23)c1 ?
8.66

* * *

Field: TGI. Provide a value for each of the compounds that follow.
- Tested on: SF-295 CNS
- Protocol summary: NCI tumour cell line growth inhibition, 48 h

Which TGI value is on record for O=C(N/N=C/c1ccc([N+](=O)[O-])cc1)c1ccccc1Nc1ccnc(C(F)(F)F)c1 ?
32.4 µM

Okay, and CCOC(=O)C1=NN(c2ccc(C)cc2)C2(c3ccccc3)C=C(c3ccccc3)N(C)CCN12 (stereo not given) ?
> 100 µM

Okay, and CCOC(=O)c1ccc(Nc2nc3ccccc3n3cccc23)cc1 ?
> 100 µM

Okay, and COc1ccc(Cc2ccc3[nH]c(=O)cc(C)c3c2)cc1S(=O)(=O)O ?
> 100 µM

Okay, and N=C1c2ccccc2C(=O)c2c(NCCNCCO)ccc(O)c21 ?
> 40.5 µM

* * *

- System: OVCAR-5 ovarian
- Protocol summary: NCI tumour cell line growth inhibition, 48 h
Endpoint label: TGI

Which TGI value is on record for COC(=O)[C@@H](C)C[C@H](Cc1ccc(F)cc1)NC(=O)c1csc([C@@H](C[C@H](C(C)C)N(C)C(=O)[C@@H](NC(=O)[C@H]2CCCCN2C)C2CC2)OC(C)=O)n1 ?
> 25 µM

Okay, and CCOc1ccc(Nc2ccnc3cc(Cl)ccc23)cc1 ?
> 100 µM

Okay, and Cc1cn(CC2(CO)CCC2)c(=O)[nH]c1=O ?
> 100 µM

Okay, and C[C@H](CCC(=O)O)[C@H]1CC[C@H]2[C@@H]3[C@@H](O)C[C@@H]4C[C@H](O)CC[C@]4(C)[C@H]3C[C@H](O)[C@]12C ?
> 100 µM

Okay, and O=C1NCN(c2ccccc2)C12CCN(CCCN1CCN(CCOC(c3ccccc3)c3ccccc3)CC1)CC2 ?
10.1 µM

Okay, and COc1ccc2[nH]c3c(c2c1)CCc1c(OC)cccc1-3 ?
> 100 µM

Okay, and C[n+]1c2ccccc2n2c3ccccc3c(NCc3ccco3)c(C#N)c21 ?
12 µM

Okay, and O=CC1=CCCN(CCc2c[nH]c3ccccc23)C1 ?
126 µM

Okay, and COc1c(O)cc2c(c1O)C(=O)C(Cc1ccc(O)cc1)CO2 (centres undefined) ?
> 100 µM

* * *

- Tested on: U251 CNS
- Protocol summary: NCI tumour cell line growth inhibition, 48 h
Field: TGI. Provide a value for each of the molecules that follow.
// units = µM; emit number, no label

Which TGI value is on record for Cn1cc(-c2ncnc3ccc(-c4cnc(Cl)c(NS(C)(=O)=O)c4)cc23)c2ccccc21 ?
23.4

Okay, and COc1ccc(NC(=O)c2ccc(C(F)(F)F)nc2Nc2ccc(Cl)cc2C)cc1Cl ?
14.9

Okay, and COc1cc(-c2n/c(=C\c3c(O)[nH]c4ccccc34)cc3c2=Nc2ccccc2-3)ccc1F ?
4.19

Where do the numbers come from? From PubChem BioAssay (NCI).
